experiment: self-splicing fitness, log relative to wild type (ln ratio); higher = more splicing; Tetrahymena group I intron in knt gene, E. coli kanamycin selection, DiMSum; sequences stand for … in CUCUCU…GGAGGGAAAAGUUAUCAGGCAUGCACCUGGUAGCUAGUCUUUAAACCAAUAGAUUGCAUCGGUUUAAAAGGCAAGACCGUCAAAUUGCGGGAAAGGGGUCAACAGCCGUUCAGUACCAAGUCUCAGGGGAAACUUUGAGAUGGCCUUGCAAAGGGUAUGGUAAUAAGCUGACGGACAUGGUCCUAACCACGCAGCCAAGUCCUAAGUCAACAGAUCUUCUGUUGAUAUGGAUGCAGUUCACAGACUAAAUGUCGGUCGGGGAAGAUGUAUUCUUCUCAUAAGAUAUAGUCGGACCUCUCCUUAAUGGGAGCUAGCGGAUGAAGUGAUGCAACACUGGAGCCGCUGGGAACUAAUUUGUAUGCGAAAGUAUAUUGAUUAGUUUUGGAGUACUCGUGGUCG; settings: 37 °C;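 further: selection with 25 µg/mL kanamycin versus none on LB agar overnight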
# cutoff -1 applies to self-splicing fitness (ln); >= gives t, < gives f

{"columns": ["Sequence Code", "Category"],
 "data": [
  ["GGCAAGCAAUAUUACGUGGG", "f"],
  ["GGAAAGCAAUAUUACGUUAA", "f"],
  ["GAGGAGCAAUAUUACGACGA", "t"]
]}

Quick check, self-splicing fitness (ln) >= -1? AUUCAGCAAUAUUACGUAAC t

Test whether the sequence AGUUAGCAAUAUUACGAACA records self-splicing fitness (ln) of -1 or higher. t

self-splicing fitness (ln) >= -1 for AUUGAGCAAUAUUACGGACU ? t

Hello, I need to know if UGUUAGCAAUAUUACGUCGU has measured self-splicing fitness (ln) not below -1. Thanks! f

Reported self-splicing fitness (ln) at or above -1? GUUAAGCAAUAUUACGUCUA t

----------
assay: self-splicing fitness, log relative to wild type (ln ratio); higher = more splicing; Tetrahymena group I intron in knt gene, E. coli kanamycin selection, DiMSum; sequences stand for … in CUCUCU…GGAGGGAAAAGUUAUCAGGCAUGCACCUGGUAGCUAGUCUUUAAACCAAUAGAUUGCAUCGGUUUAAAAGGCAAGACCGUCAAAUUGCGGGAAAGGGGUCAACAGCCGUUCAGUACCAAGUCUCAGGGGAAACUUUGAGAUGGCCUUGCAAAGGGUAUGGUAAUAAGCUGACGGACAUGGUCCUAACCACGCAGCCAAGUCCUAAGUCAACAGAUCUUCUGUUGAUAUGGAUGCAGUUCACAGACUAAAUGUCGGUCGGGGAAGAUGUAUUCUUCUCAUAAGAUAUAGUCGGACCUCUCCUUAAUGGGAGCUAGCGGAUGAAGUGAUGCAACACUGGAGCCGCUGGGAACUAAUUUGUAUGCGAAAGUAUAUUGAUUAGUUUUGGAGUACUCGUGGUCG; details: 37 °C
Here, each record is paired with measured self-splicing fitness (ln) data.
The response must contain the number and no unit.

{"columns": ["Sequence Code", "Recorded Value"],
 "data": [
  ["CGCUAGCAAUAUUACGCCGA", -0.258],
  ["UUUGAGCAAUAUUACGAAAG", -2.49],
  ["GAUAAGCAAUAUUACGGCUG", 0.0614],
  ["GGGAAGCAAUAUUACGCUGG", -1.73],
  ["CACAAGCAAUAUUACGUCAA", -2.6]
]}

Which value of self-splicing fitness (ln) has been reported for UACAAGCAAUAUUACGUUGU in the records? -2.99

Entry under review: CGCGAGCAAUAUUACGGAAU . Reported self-splicing fitness (ln)? -3.01

Report self-splicing fitness (ln) for UAAGAGCAAUAUUACGCCGU please. -2.26

Query (sequence): GACUAGCAAUAUUACGGGUG ; field requested: self-splicing fitness (ln) -0.949

Which self-splicing fitness (ln) is listed for CGUUAGCAAUAUUACGAGUA ? -2.67

----------
assay: self-splicing fitness, log relative to wild type (ln ratio); higher = more splicing; Tetrahymena group I intron in knt gene, E. coli kanamycin selection, DiMSum; sequences stand for … in CUCUCU…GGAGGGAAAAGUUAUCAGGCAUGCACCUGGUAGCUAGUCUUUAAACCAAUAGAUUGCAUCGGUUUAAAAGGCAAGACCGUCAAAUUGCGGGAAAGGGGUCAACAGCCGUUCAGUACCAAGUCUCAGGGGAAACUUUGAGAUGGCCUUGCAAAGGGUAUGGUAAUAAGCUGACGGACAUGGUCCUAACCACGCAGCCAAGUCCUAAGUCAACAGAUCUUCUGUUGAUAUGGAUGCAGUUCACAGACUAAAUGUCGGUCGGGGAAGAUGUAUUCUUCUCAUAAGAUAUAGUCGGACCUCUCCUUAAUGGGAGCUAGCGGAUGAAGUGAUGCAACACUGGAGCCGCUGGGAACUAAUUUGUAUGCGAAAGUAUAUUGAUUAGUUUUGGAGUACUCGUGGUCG; conditions: 30 °C
Mark 1.0 for reported self-splicing fitness (ln) of -2 or greater; mark 0.0 for anything smaller.

Here's what some known entries look like.
{"columns": ["Sequence Code", "Category"],
 "data": [
  ["ACGUAGCAAUAUUACGGCCU", 1.0],
  ["UUGCAGCAAUAUUACGGGCC", 0.0],
  ["GAAAAGCAAUAUUACGCGGC", 0.0],
  ["GAGUAGCAAUAUUACGAUCG", 1.0],
  ["GUUCAGCAAUAUUACGGCUA", 1.0]
]}

Now look at this one.
Form field: self-splicing fitness (ln) at least -2? Entry: CGCAAGCAAUAUUACGACAA 0.0

----------
test: self-splicing fitness, log relative to wild type (ln ratio); higher = more splicing; Tetrahymena group I intron in knt gene, E. coli kanamycin selection, DiMSum; sequences stand for … in CUCUCU…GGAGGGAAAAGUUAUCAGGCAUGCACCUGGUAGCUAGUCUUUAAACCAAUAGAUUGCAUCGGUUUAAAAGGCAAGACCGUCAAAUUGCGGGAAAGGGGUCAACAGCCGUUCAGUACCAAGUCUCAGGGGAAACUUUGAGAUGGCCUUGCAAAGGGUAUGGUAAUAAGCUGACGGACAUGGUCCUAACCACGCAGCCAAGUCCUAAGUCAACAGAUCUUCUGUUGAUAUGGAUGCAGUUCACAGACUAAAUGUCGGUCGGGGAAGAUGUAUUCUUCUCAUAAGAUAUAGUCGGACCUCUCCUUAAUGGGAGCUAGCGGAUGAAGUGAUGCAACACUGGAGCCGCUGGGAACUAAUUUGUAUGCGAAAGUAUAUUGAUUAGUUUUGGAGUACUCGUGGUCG; settings: 30 °C
Think of -2 as a floor: if self-splicing fitness (ln) stands on it or above, it is Criterion met; beneath it, Criterion not met.

Worked examples follow.
{"columns": ["Sequence Code", "Category"],
 "data": [
  ["ACGUAGCAAUAUUACGAAAA", "Criterion not met"],
  ["CGAAAGCAAUAUUACGAAUG", "Criterion met"],
  ["ACCGAGCAAUAUUACGUCAA", "Criterion not met"],
  ["AGACAGCAAUAUUACGGUAG", "Criterion not met"]
]}

Determine whether this sequence has self-splicing fitness (ln) no lower than -2: CGAUAGCAAUAUUACGUGGA Criterion met

Quick check, self-splicing fitness (ln) >= -2? AAUGAGCAAUAUUACGUUUG Criterion not met

Does GUCUAGCAAUAUUACGUAAA have a reported self-splicing fitness (ln) of at least -2? Criterion met

----------
Quick reference: self-splicing fitness (ln) of the listed items.
experiment: self-splicing fitness, log relative to wild type (ln ratio); higher = more splicing; Tetrahymena group I intron in knt gene, E. coli kanamycin selection, DiMSum; sequences stand for … in CUCUCU…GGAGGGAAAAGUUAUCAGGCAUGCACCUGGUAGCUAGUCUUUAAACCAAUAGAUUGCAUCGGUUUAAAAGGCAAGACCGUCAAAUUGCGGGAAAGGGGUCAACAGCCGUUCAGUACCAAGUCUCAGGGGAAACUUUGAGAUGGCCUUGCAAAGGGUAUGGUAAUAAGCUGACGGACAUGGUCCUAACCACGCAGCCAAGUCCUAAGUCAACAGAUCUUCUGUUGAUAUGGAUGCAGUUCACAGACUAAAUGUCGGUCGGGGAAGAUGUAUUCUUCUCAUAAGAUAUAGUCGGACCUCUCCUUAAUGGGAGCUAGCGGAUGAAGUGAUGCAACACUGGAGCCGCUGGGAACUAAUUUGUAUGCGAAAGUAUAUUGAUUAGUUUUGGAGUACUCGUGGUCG; settings: 37 °C
Please reply with the value in numeric form only.

For orientation, consider the following solved cases.
{"columns": ["Sequence Code", "Recorded Value"],
 "data": [
  ["CAUCAGCAAUAUUACGUAAA", -0.891],
  ["CAGCAGCAAUAUUACGUCGU", -0.9],
  ["UUAGAGCAAUAUUACGGCGC", -0.914]
]}

Any idea what its self-splicing fitness (ln) is? The sequence is UCGUAGCAAUAUUACGGCGG -0.883

Values compiled from the supplement of paper PMC7877785.
